These measurements were taken from patent US20220306609A1.

Biological target: androgen receptor (AR) (Homo sapiens, UniProt P10275, T878A)
Construct: LNCaP cells expressing ARR2PB-FireflyLuc and CMV-RenillaLuc; endogenous in cells
Sequence (P10275 whole entry T878A): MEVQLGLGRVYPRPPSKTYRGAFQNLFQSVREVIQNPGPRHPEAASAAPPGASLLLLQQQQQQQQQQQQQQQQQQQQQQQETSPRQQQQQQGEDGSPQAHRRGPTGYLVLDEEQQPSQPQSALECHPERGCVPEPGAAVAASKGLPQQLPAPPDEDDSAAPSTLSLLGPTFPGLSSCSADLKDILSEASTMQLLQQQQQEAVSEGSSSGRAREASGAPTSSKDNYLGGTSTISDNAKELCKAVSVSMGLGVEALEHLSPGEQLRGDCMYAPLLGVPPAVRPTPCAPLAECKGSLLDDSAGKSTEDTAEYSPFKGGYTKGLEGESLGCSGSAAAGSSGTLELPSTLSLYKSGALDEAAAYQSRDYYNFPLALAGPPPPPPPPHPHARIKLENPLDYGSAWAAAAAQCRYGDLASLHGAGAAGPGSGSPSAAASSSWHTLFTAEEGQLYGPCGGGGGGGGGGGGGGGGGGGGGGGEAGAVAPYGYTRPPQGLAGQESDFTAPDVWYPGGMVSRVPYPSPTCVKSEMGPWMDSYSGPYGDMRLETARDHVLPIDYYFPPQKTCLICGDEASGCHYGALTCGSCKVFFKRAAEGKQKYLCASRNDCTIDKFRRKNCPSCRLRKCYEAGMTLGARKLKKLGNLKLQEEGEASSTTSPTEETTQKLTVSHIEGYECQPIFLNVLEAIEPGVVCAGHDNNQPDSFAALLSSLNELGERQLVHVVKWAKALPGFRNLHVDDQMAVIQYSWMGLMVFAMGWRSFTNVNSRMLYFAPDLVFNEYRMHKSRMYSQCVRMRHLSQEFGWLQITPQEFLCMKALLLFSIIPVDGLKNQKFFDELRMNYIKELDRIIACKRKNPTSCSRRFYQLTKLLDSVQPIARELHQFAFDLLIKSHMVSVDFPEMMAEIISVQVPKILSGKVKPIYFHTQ
Experiment: LNCaP ARR2PB-FireflyLuc / CMV-RenillaLuc reporter assay, antagonist mode
Settings: LNCaP cells expressing ARR2PB-FireflyLuc and CMV-RenillaLuc; +/- 0.5 nM DHT; 48 h at 37° C
pIC50: −log10 of the molar value.
molecules and their reported pIC50

Field: example entries. Status: answers known.
{"MOLECULE": "CCn1nc(C)cc1-c1c[nH]c2c(C#N)cccc12 [Compound 012]", "pIC50": "> 7.00"}
{"MOLECULE": "N#Cc1cccc2c(-c3ccc(=O)n(CC(F)F)n3)c[nH]c12 [Compound 004]", "pIC50": "6.00 to 7.00"}
{"MOLECULE": "CCn1nc(-c2c[nH]c3c(C#N)cccc23)cc1C [Compound 011]", "pIC50": "6.00 to 7.00"}

Input line: Returns the measured pIC50 for the input molecule. Input: CCn1nc(-c2c[nH]c3c(C#N)cccc23)cc(OC)c1=O [Compound 006]
Output line: 5.00 to 6.00

Input line: Can you look up the measured pIC50 of CCN1N=C(c2c[nH]c3c(C#N)cccc23)CCC1=O [Compound 001] for me?
Output line: 6.00 to 7.00

Input line: So what's the measured pIC50 for this one? CC(C)(O)Cn1ccc(-c2c[nH]c3c(C#N)cccc23)n1 [Compound 010]
Output line: < 5.00

Input line: Give its pIC50 value. Item: CCn1nc(-c2c[nH]c3c(C#N)cccc23)ccc1=O [Compound 002]
Output line: > 7.00

###

Recorded IC50 for the following compounds
Target: androgen receptor (AR) (Homo sapiens, UniProt P10275, T878A)
Construct: LNCaP cells expressing ARR2PB-FireflyLuc and CMV-RenillaLuc; endogenous in cells
Assay: LNCaP ARR2PB-FireflyLuc / CMV-RenillaLuc reporter assay, antagonist mode
Conditions: LNCaP cells expressing ARR2PB-FireflyLuc and CMV-RenillaLuc; +/- 0.5 nM DHT; 48 h at 37° C

Here are 4 compounds together with their reported answers.
{"CHEMICAL_STRUCTURE": "CCn1cc(-c2c[nH]c3c(C#N)cccc23)cn1", "IC50": "1000 to 10000 nM"}
{"CHEMICAL_STRUCTURE": "CCn1nc(-c2c[nH]c3c(C#N)cccc23)c(C)cc1=O", "IC50": "1000 to 10000 nM"}
{"CHEMICAL_STRUCTURE": "CCn1ccc(-c2c[nH]c3c(C#N)cccc23)n1", "IC50": "< 100 nM"}
{"CHEMICAL_STRUCTURE": "N#Cc1cccc2c(-c3ccn(C4CC4)n3)c[nH]c12", "IC50": "100 to 1000 nM"}

Input line: Any idea what IC50 was measured for CCn1nc(-c2c[nH]c3c(Cl)nccc23)ccc1=O ?
Output line: > 10000 nM
